tested on: SRPK1; settings: concentration: 1 μM,replicates: in singlicate; n = 1;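 further: KINOMEscan kinase panel screen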
Measured %Inh by item
Express it in %; write the number only.

{"Compound": "COc1cc(Nc2nccc(N3CCC(NC(=O)c4cccc(C#N)c4)C3)n2)cc(OC)c1OC (stereo not drawn) [GSK1379751]", "Measured Target": "SRPK1", "Units Of Measure": "%", "%Inh": 49}
{"Compound": "C[C@@H](Oc1cc(-n2cnc3cc(-c4cnn(C)c4)ccc32)sc1C(N)=O)c1ccccc1Cl [GSK580432]", "Measured Target": "SRPK1", "Units Of Measure": "%", "%Inh": 98.2}
{"Compound": "Cc1cccc2c(-c3ccncc3)c(-c3ccc(F)cc3)nn12.Cl [GW461487]", "Measured Target": "SRPK1", "Units Of Measure": "%", "%Inh": 0}
{"Compound": "Cc1nnc(-c2ccc3occ(-c4ccc(S(C)=O)cc4)c3n2)o1 (stereo not drawn)", "Measured Target": "SRPK1", "Units Of Measure": "%", "%Inh": 0}
{"Compound": "Cc1ccc2c(-c3ccnc(Nc4ccc(C(F)(F)F)cc4)n3)cnn2n1 [GW819776]", "Measured Target": "SRPK1", "Units Of Measure": "%", "%Inh": 14}

Here is another compound to look at.
Q: %Inh of Cc1ccc(CC(=O)N2CCc3cc(-c4cn(C)c5ncnc(N)c45)ccc32)cc1 [GSK2634758] on SRPK1?
Ans: 13

---

system: SRPK2; settings: concentration: 1 μM,replicates: in singlicate; n = 1
Readout Type: %Inh (%)
Express it in %; write the number only.

{"Compound": "Cc1ccc(C(=O)Nc2ccc(Oc3ccc4nc(NC(=O)C5CC5)cn4c3)c(F)c2)c(=O)n1-c1ccccc1", "Recorded Number": 23}

Q: Look up %Inh: COC(=O)Nc1nc2cc(Oc3ccc(NC(=O)Nc4cc(C(F)(F)F)ccc4Cl)cc3)ccc2[nH]1.Cl [GW697465]
Ans: 32

Q: Next record, please: CN(c1ccc2c(c1)nc(NCc1ccc(F)cc1)n2C)c1ccnc(Nc2ccc(CS(C)(=O)=O)cc2)n1.Cl [GW813244]
Ans: 0

Q: Next record, please: COc1cccc(C2=C(Nc3cccc(Cl)c3)C(=O)NC2=O)c1 [SB-341556]
Ans: 0

Q: Next record, please: Cl.c1ccc(Oc2ccc(Nc3ccnc4cc(-c5ccc(CN6CCNCC6)o5)ccc34)cc2)nc1 [GW567142]
Ans: 7

Q: Next record, please: O=C1NCCc2[nH]c(-c3ccncc3)cc21
Ans: 0

Q: Next record, please: OCCn1cc(-c2cnc3nnn(Cc4ccc5ncccc5c4)c3n2)cn1
Ans: 4

Q: Next record, please: O=C(NOCC1CC1)c1cc(Br)c(F)c(F)c1Nc1ccc(I)cc1Cl
Ans: 0

---

tested on: p38-gamma; construct: gene MAPK12; conditions: concentration: 1 μM,replicates: in singlicate; n = 1
Kind request: treat 10% as inclusive, so %Inh at 10% or higher is label 1, anything lower is label 0.

Reference set (4 entries):
{"Compound": "Cn1ccc2ncnc(Oc3ccc(NC(=O)Nc4cc(C(C)(C)C)on4)c(Cl)c3)c21", "Measured Target": "p38-gamma", "Cat": "label 1"}
{"Compound": "CCn1c(-c2nonc2N)nc2cncc(Br)c21", "Measured Target": "p38-gamma", "Cat": "label 0"}
{"Compound": "COC(=O)c1cccc(NC(=O)NC2CCN(c3ccnc(NCc4ccc(F)cc4)n3)CC2)c1", "Measured Target": "p38-gamma", "Cat": "label 0"}
{"Compound": "NC(=O)c1ccc(-c2cc3ncnc(SCC(=O)O)c3s2)cc1", "Measured Target": "p38-gamma", "Cat": "label 0"}

Q: # bool: %Inh of NC(=O)Nc1sc(-c2ccc(F)cc2)cc1C(N)=O >= 10%
Ans: label 1

Q: Next record, please: Cl.c1ccc(Oc2ccc(Nc3ccnc4cc(-c5ccc(CN6CCNCC6)o5)ccc34)cc2)nc1
Ans: label 0

Q: Next record, please: CN(c1cccc(CNc2nc(Nc3ccc4c(c3)CC(=O)N4)ncc2C(F)(F)F)c1)S(C)(=O)=O
Ans: label 0

Q: Next record, please: CC(C(=O)NC1CCN(c2ccnc(Nc3ccc(F)cc3)n2)C1)c1ccc(Cl)cc1 (stereo not drawn)
Ans: label 0

Q: Next record, please: CC(C)c1nc(-c2cccc(NS(=O)(=O)c3ccccc3)c2)c(-c2ccnc(Nc3ccc4c(c3)CN(C)CC4)n2)s1
Ans: label 0

Q: Next record, please: Cc1ccc2c(-c3ccnc(Nc4ccc(C(F)(F)F)cc4)n3)cnn2n1
Ans: label 1

Q: Next record, please: Cc1ccc(C(=O)Nc2ccc(Oc3ccc4nc(NC(=O)C5CC5)cn4c3)c(F)c2)c(=O)n1-c1ccccc1
Ans: label 1

Q: Next record, please: O=C(Nc1cccc(Oc2ccc3nccn3n2)c1)Nc1cccc(C(F)(F)F)c1
Ans: label 1

Q: Next record, please: Cn1ccc2ncnc(Oc3ccc(NC(=O)Nc4ccnc(C(F)(F)F)c4)c(Cl)c3)c21
Ans: label 0

Q: Next record, please: CC(=O)Nc1ccc(-c2cc3ncnc(SCC(=O)O)c3s2)cc1
Ans: label 0

Q: Next record, please: COc1cc(Nc2nccc(N3CCC(NC(=O)c4cccc(C#N)c4)C3)n2)cc(OC)c1OC (stereo not drawn)
Ans: label 0

Q: Next record, please: Cn1cc(-c2cccc3c(N)c(C(N)=O)nnc23)cn1
Ans: label 1

---

test system: EPHA4; conditions: concentration: 1 μM,replicates: in singlicate; n = 1
Measured %Inh by item
Express it in %; write the number only.

{"Compound": "COC(=O)c1cccc(NC(=O)NC2CCN(c3ccnc(Nc4cc(OC)c(OC)c(OC)c4)n3)C2)c1 (stereo not shown)", "Units Of Measure": "%", "Recorded Number": 6}
{"Compound": "C[C@@H]1CNc2c(sc3ccc4nc(-c5ccncc5)ccc4c23)C(=O)N1", "Units Of Measure": "%", "Recorded Number": 15}
{"Compound": "CNC(=O)c1ccccc1Nc1nc(Nc2cccc(CS(C)(=O)=O)c2)ncc1C.O=CO", "Units Of Measure": "%", "Recorded Number": 88}
{"Compound": "O=C(Nc1n[nH]c2cc(-c3ccco3)ccc12)C1CC1", "Units Of Measure": "%", "Recorded Number": 0}
{"Compound": "c1ccc(Oc2ccc(Nc3ccnc4ccc(-c5ccccn5)cc34)cc2)cc1", "Units Of Measure": "%", "Recorded Number": 7}

Q: Look up %Inh: Cn1ccc2ncnc(Oc3ccc(NC(=O)Nc4cnn(C(C)(C)C)c4)c(Cl)c3)c21
Ans: 23

Q: Next record, please: Cn1ccc2ncnc(Oc3ccc(NC(=O)Nc4cccc(C(F)(F)F)c4)c(Cl)c3)c21
Ans: 88

Q: Next record, please: CCn1c(-c2nonc2N)nc2cncc(Br)c21
Ans: 16

Q: Next record, please: O=C1NCCc2[nH]c(-c3ccncc3)cc21
Ans: 30

Q: Next record, please: Cc1ccc2c(-c3ccnc(Nc4ccc(C(F)(F)F)cc4)n3)cnn2n1
Ans: 8

Q: Next record, please: Cc1n[nH]c2cc(Nc3ccnc(Nc4cccc(CN5CCOCC5)c4)n3)ccc12
Ans: 17

Q: Next record, please: CS(=O)(=O)c1cccc(CNc2nc(Nc3ccc4c(c3)[C@@H]3C[C@@H]4CNC3=O)ncc2C(F)(F)F)c1
Ans: 2

Q: Next record, please: Nc1nccc(-c2ccc3c(N)n[nH]c3c2)n1
Ans: 0

Q: Next record, please: CS(=O)c1ccc(-c2coc3ccc(-c4n[nH]c(=O)o4)cc23)cc1 (stereo not shown)
Ans: 0

Q: Next record, please: CC(C)c1nc(-c2cccc(NS(=O)(=O)c3ccccc3)c2)c(-c2ccnc(Nc3ccc4c(c3)CN(C)CC4)n2)s1
Ans: 21

Q: Next record, please: O=c1[nH]cc(-c2ccc(O)cc2)c2sc(-c3ccncc3)cc12
Ans: 10

Q: Next record, please: CS(=O)(=O)Nc1ccc(-c2ccnc3[nH]ccc23)cc1
Ans: 20

Q: Next record, please: C[C@@H]1CCN(C(=O)N2CCCC2)C[C@@H]1N(C)c1ncnc2[nH]ccc12
Ans: 16

Q: Next record, please: Cc1cccc(-c2nc(Nc3ccncc3)c3sccc3n2)n1
Ans: 8

---

system: YES; construct: gene YES1; settings: concentration: 1 μM,replicates: in singlicate; n = 1
Kind request: treat 10% as inclusive, so %Inh at 10% or higher is y, anything lower is n.

Reference set (4 entries):
{"Compound": "CC(=O)Nc1ccc(-c2cc3ncnc(SCC(=O)O)c3s2)cc1", "Cat": "n"}
{"Compound": "COc1cccc(C2=C(Nc3cccc(Cl)c3)C(=O)NC2=O)c1", "Cat": "y"}
{"Compound": "CC(C)c1nc(-c2cccc(NS(=O)(=O)c3ccccc3)c2)c(-c2ccnc(Nc3ccc4c(c3)CN(C)CC4)n2)s1", "Cat": "y"}
{"Compound": "FC(F)(F)c1cc(Br)cc(Nc2nccc(-c3cnn4ncccc34)n2)c1", "Cat": "n"}

Q: # bool: %Inh of COc1cccc(OC)c1C(=O)Nc1cccc(-c2nn3ccccc3c2-c2ccnc(Nc3cccc(F)c3)n2)c1 >= 10%
Ans: y

Q: Next record, please: CSc1nccc(-c2c(-c3ccc(F)cc3)ncn2CCCN2CCOCC2)n1.Cl
Ans: n

Q: Next record, please: COc1ccc(Nc2nccc(N3CCC(NC(=O)c4cccc(C#N)c4)C3)n2)cc1 (centres unmarked)
Ans: y
